Numbers sourced from ChEMBL document CHEMBL1667753.

# TEST_DESCRIPTION: Selectivity index, ratio of IC50 for CHO cells to IC50 for chloroquine-sensitive Plasmodium falciparum D10
# Format: toxicity, cell-based
# CONDITION: hamster, read-out: Ratio IC50
Mark satisfied only when selectivity ratio stays strictly below 20. Values equal to the cut-off are not satisfied.

compound="CCN(CC)CC1CN1Cc1ccc(OC)cc1 (racemic)" label_class="not satisfied"
compound=CCN(CC)CC(CN(CC)CC)NCc1ccc(OC)cc1 label_class="not satisfied"
compound="CCN(CC)CC1CN1Cc1ccccc1 (racemic)" label_class="not satisfied"
compound="CCN(CC)CC1CN1Cc1ccc(Cl)cc1 (racemic)" label_class="not satisfied"
compound=CCN(CC)CC(CN(CC)CC)NCc1ccc(Cl)cc1 label_class=satisfied
